# Tested on: MAO in the liver (substrate 5-HT)
# procedure_summary: MAO inhibition ex vivo in liver of rats, substrate 5-HT
# Set-up: species or system male albino rats (Fu-SPF)
# condition_info: rat, 100 μmol/kg orally, 2 hrs., given in percentage of the control values
Would you kindly list MAO inhibition, Liver, 5HT for each of these molecules?
Reply with just the number (in %).

QUERY: GET /values?readout=MAO inhibition, Liver, 5HT&item= CC1=NCCn2c1cc1c2-c2ccc(OC(C)C)cc2CC1
RESULT: 10

QUERY: How about this molecule: COc1ccc2c(c1)CCc1cc3n(c1-2)CCN=C3C
RESULT: 5

QUERY: Ok, now CC1=NCCn2c1cc1c2-c2ccc(Cl)cc2CC1
RESULT: 20

----------
For each entry below, report its IC50 value.
# tested_on: MAO (substrate 5-HT) (Rattus norvegicus)
# Sequence (P21396 1-526): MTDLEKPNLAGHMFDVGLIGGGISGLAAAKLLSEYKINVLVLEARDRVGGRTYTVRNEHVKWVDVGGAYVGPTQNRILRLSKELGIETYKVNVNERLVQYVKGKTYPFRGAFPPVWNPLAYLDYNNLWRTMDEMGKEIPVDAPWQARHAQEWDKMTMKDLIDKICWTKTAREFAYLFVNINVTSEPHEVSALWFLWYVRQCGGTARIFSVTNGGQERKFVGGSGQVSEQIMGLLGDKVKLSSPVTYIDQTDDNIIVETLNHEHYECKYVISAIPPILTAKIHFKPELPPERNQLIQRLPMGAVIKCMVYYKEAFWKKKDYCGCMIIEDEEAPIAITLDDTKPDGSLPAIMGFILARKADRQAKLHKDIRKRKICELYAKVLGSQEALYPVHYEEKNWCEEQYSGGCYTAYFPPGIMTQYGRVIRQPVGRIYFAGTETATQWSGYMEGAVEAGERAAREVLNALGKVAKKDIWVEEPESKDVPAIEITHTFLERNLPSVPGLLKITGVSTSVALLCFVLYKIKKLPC
Kindly answer with a numeric value in µM, unit omitted.

QUERY: Using the record for CC1=NCCn2c1cc1c2-c2ccccc2CC1 , report its IC50.
RESULT: 0.03

QUERY: Another: CC1=NCCn2c1cc1c2-c2ccc(C3CCCCC3)cc2CC1
RESULT: 0.002

QUERY: Let us now turn to CC1=NCCn2c1cc1c2-c2ccc(Cl)cc2CC1
RESULT: 0.01

QUERY: Query CC1=NCCn2cc(-c3ccccc3)cc21 next
RESULT: 0.09

QUERY: Another molecule to look at: CC1=NCCn2c1ccc2-c1ccccc1
RESULT: 0.3

QUERY: Now try CC1NCCn2c1cc1c2-c2ccccc2CC1 (stereo not shown) .
RESULT: 0.09

QUERY: Same question for CC1=NCCn2c1ccc2-c1ccc(Cl)cc1 please.
RESULT: 0.35

QUERY: Please answer likewise for CC1=NCCn2c1ccc2-c1ccc(OC2CCCC2)cc1
RESULT: 0.01

QUERY: # iterate: CC1=NCCn2c1cc1c2-c2ccc(OC3CCCC3)cc2CC1
RESULT: 0.001

QUERY: Try this molecule next: CC1=NCCn2c1ccc2-c1ccc(O[C@@H]2C[C@H]3CC[C@@H]2C3)cc1 (relative stereo)
RESULT: 0.02
